Attribution: the supplement of paper PMC7411054

Test system: A549-TUBA1B-RELA
Experiment: phenotypically active (imaging signature differs from DMSO and reproducible) at any of 0.3-9 uM (binary (1 = active, 0 = inactive)); higher = active
Conditions: treatment time: 24 h
Structures can show the parent of a compound that is named as a salt.
Give your call using only these classes: yes (1) (active), no (0) (inactive)

Any idea what this test logged for C=CCc1ccccc1OC[C@@H](O)CNC(C)C [Alprenolol hydrochloride] ? no (0)

Check the results log: what was the call for CC(C)N(CCCNC(=O)Nc1ccc(C(C)(C)C)cc1)C[C@H]1O[C@@H](n2cc(Br)c3c(N)ncnc32)[C@H](O)[C@@H]1O ? no (0)

Each molecule tested received a call. Report the one for CCCCc1oc2ccc(NS(C)(=O)=O)cc2c1C(=O)c1ccc(OCCCN(CCCC)CCCC)cc1 . yes (1)

More entries:
What outcome does the record of this test show for CCN(CC)c1ccc(/C=N/NC(=O)c2ccncc2)c(O)c1 ? yes (1)
